Entry source: BindingDB's records for doi:10.7270/Q2SX6BMJ

Molecular target: UniProt:P05186
Sequence (P05186 whole entry): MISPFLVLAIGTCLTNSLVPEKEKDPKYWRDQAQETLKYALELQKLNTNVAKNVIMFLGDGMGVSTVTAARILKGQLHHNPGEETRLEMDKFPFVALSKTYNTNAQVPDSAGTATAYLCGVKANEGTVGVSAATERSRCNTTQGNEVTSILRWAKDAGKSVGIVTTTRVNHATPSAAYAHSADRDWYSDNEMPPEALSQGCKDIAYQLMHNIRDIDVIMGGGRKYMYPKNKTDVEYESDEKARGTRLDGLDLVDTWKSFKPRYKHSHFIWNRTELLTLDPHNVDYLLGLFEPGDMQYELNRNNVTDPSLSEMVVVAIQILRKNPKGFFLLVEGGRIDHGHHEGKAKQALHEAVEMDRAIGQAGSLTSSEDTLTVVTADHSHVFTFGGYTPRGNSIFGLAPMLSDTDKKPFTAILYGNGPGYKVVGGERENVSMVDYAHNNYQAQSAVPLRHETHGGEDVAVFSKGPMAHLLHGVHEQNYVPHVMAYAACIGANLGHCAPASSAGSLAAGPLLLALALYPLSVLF
Experiment: human TNAP enzyme inhibitors, biochemical, luminescent (AID 518)
Listed next: entries and their corresponding IC50.

[
  {
    "QUERY_SMILES": "O=C(Cn1c(-c2ccccc2)noc1=O)Nc1ccc(N2CCCCCC2)cc1",
    "IC50": "> 100 µM"
  }
]

Query IC50 for CCN(CC)S(=O)(=O)c1ccc2c(c1)c(=O)c(C(=O)N1CCOCC1)cn2C > 100 µM

Provide IC50 value for the following compound: COC(=O)c1cc(-c2ccccc2)n[nH]1 1.24 µM

Look up and report measured IC50 for this entry: CCCc1nc2c3cnn(-c4cccc(Cl)c4)c3ncn2n1 > 100 µM
